# Assay: yeast display, Sf9 membrane polyspecificity reagent, FACS + sequencing; frameworks hold sequencing errors
Measure: polyreactivity (PSR sort gate)

Completed entries (count: 4):
QVQLVESGGGLVQAGGSLRLSCAASGFIFGGYAMGWSRQAPGKERELVADISSSGGSTYYADSVKGRFTLSRDNAKNTVYLQMNSLKPEDTAVYDCAKVGWSRRYYYWGQGTQVTVSS : high polyreactivity
QVQLVESGGGLVQAGGSLRLSCAASGRIFRYYDMGWYRQAPGKERELVAAITSDGSTKDADSVKGRFTISRDNAKNTVYLQMNSLKQEDTAVYYCNAEVLPTWYSPQLDYWGQGTQVTVSS : low polyreactivity
QVQLVESGGGLVQAGGSLRLSCAASGHTFTINAMGWYRQAPGKERELVAAITFSGGRTYYADSVKGRFTISRDNAKNTVYLQMNSLKPEDTAVYYCAADNPGGSIYDYWGQGTQVTVSS : low polyreactivity
QVQLVESGGGLVQAGGSLRLSCAASGSIFDDYTMVWYRQAPGKEREFVATITSSGSTYYADSVKGRFTISRDNAKNTVYLQMNSLKPEDTAVYYCNADDTYYPLGGITGYDYWGQGTQVTVSS : low polyreactivity

## Task So what does the record say about polyreactivity (PSR sort gate) for QVQLQESGGGLVQAGGTLRLSCQASGSIFVSVTMGWYRQAPGKERELVASIGRGSTTNHADSVKGRFTISRDNAKNIVYLLMNSLKPEDTAVYYCAALESYGKYHGYWGQGTQVTVSS ?
## Result low polyreactivity

## Task Param item = QVQLVESGGGLVQAGGSLRLSCAASGTFYGKTMGWYRQAPGKERELDAVISIDGSTNYADSVKGRFTISRDNAKKTVYLQMNSLKPEDTAVYYCNARNQWRTVGKYDYWGQGTQVTVSS ; retrieve measured polyreactivity (PSR sort gate).
## Result low polyreactivity

## Task Item under review: QVQLQESGGGLVQAGGSQRLSCAASGTITVLYKMGRFRQAPGKEREFVASINYGTSTYYADSVKGRFTLSRDSAKNTVYLQMNSLKPEDTAVYYCAAAYRWQDVYRYWGQGTQVTVSS . Reported polyreactivity (PSR sort gate)?
## Result low polyreactivity

## Task Endpoint output: polyreactivity (PSR sort gate) of QVQLVESVGGLVQAGGSLRLSCAASGFIIYGYGMGWYRQAPGKERELVAAISARSTRTYYADSVKGRFTISRDNAKNTVYLQMNSLKPEDTAVYYCAAVRGPTYRNDNYGYWGQGTQVTVSS . Value?
## Result high polyreactivity

## Task If you can, please state the reported polyreactivity (PSR sort gate) value of QVQLVESGGGLVQAGGSLRLSCAASGRTFYSYAMGWYRQAPGKERELVAAINTSGGRTHYADSVKGRFTISRDNAKNTVYLQMNSLKPEDTAVYYCAAEVFRTRTWEYYYWGQGTQVTVSS .
## Result high polyreactivity

## Task Given QVQLVESGGGLVQAGGSLRLSCAASGSTFKWYAMGWYRQAPGKERELVAAITVSGDSTYYADSVKGRFTISRDNAKNTVYLQMNSLKPEDTAVYYCAKDYQGITPYDYWGQGTQVTVSS , state its recorded polyreactivity (PSR sort gate).
## Result low polyreactivity

## Task // returns reported polyreactivity (PSR sort gate) for input QVQLVESGGGLVQAGGSLRLSCAASGSIFGPYAMGWYRQAPGKERELVARITLSAGNTYYADSVKGRFTISRDNAKNTVYLQMNSLKPEDTAVYYCAAKVYSKYWFVGNYWGQGRQVTVSS
## Result high polyreactivity
